Target: mAChR hM4 (Homo sapiens, UniProt P08173)
Construct: expressed in transfected cells; host or cells: CHO-K1 (Chinese hamster ovary) cells
Sequence (P08173 whole entry): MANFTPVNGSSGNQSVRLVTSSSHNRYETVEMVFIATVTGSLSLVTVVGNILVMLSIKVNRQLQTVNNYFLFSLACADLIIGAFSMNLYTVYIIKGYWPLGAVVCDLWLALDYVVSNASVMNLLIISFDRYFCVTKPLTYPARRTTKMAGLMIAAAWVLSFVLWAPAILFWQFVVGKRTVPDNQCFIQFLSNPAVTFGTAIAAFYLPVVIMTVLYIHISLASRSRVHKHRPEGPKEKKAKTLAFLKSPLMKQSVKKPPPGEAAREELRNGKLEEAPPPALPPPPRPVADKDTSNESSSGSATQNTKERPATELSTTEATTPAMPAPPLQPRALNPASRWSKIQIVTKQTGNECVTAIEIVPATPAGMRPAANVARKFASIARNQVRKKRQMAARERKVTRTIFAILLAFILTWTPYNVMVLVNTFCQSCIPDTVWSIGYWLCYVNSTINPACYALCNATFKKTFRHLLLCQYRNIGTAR
Assay: mAChR M4 cell-based functional assay (calcium flux, potentiation of EC20 acetylcholine response)
Details: % ACh maximum at 30 μM; mAChR hM4 cell-line
Please mark met if the recorded Emax at 30 µM is equal to or greater than 50%, and not met if it falls below.

In [3]: df
Out[3]:
                                   compound                     target_or_test_system    group
0  Cc1cc(C)c2cc(C(=O)NC3CN(c4cccnc4)C3)sc2n1 [Compound 75]  mAChR hM4 (Homo sapiens, UniProt P08173)      met
1  Cc1cc(C)c2cc(C(=O)NCc3ccc(S(C)(=O)=O)cc3)sc2n1 [Compound 35]  mAChR hM4 (Homo sapiens, UniProt P08173)  not met
2  COc1ccc(CNC(=O)c2cc3c(C)cc(C)nc3s2)cc1 [Compound 15]  mAChR hM4 (Homo sapiens, UniProt P08173)      met
3  Cc1nc2sc(C(=O)NC3CC3)c(C)c2c(C)c1Cl [Compound 60]  mAChR hM4 (Homo sapiens, UniProt P08173)      met
4  COc1ccc(CNC(=O)c2sc3nc(C)cc(C)c3c2C)cc1 [Compound 17]  mAChR hM4 (Homo sapiens, UniProt P08173)      met
5  Cc1nc2sc(C(=O)NC3COC3)c(C3CC3)c2c(C)c1Cl [Compound 55]  mAChR hM4 (Homo sapiens, UniProt P08173)      met
6  Cc1nc2sc(C(=O)NC3CCS(=O)(=O)C3)c(C)c2c(C)c1Cl (stereo not shown) [Compound 59]  mAChR hM4 (Homo sapiens, UniProt P08173)  not met
7  Cc1nc2sc(C(=O)NC3CC(F)(F)C3)c(Cl)c2c(C)c1Cl [Compound 128]  mAChR hM4 (Homo sapiens, UniProt P08173)  not met

Reference for the values: patent US20160200733A1
